target: Gamma-secretase; experiment: Inhibition of full-length human gamma secretase expressed in SH-SY5Y spbetaA4CTF cells assessed as reduction in amyloid beta levels after 90 mins by HTRF assay; type: cell-based

smiles | measured_target | IC50
CC(C)C[C@H](NC(=O)[C@H](Cc1ccccc1)C[C@@H](O)[C@H](Cc1ccccc1)NC(=O)OC(C)(C)C)C(=O)N[C@@H](Cc1ccccc1)C(N)=O | Gamma-secretase | 115 to 200 nM

---

biological target: Gamma-secretase; assay: Inhibition of gamma secretase (unknown origin) mediated Notch M1726V mutant activation in CHO K1 cells after 48 hrs by chemiluminescence assay
observable: IC50 (nM)

molecule | val
O=S(=O)(N[C@H](CO)C(C(F)(F)F)C(F)(F)F)c1ccc(Cl)s1 [BEGACESTAT] | 208
